Ref: the supplement of paper PMC7287046

Tested on: SF268
Experiment description: HSA synergy score (Combenefit); higher = more synergy
Stated conditions: exposure time: 72 h
Metric: HSA synergy score
No unit in the answer, only the number.

Req: I have this compound here, CC(=O)O[C@@]12CO[C@@H]1C[C@H](O)[C@@]1(C)C(=O)[C@H](O)C3=C(C)[C@@H](OC(=O)[C@H](O)[C@@H](NC(=O)OC(C)(C)C)c4ccccc4)C[C@@](O)([C@@H](OC(=O)c4ccccc4)[C@H]21)C3(C)C [Docetaxel] + O=c1[nH]c2ccccc2n1C1CCN(Cc2ccc(-c3[nH]c4cc5ncnc5cc4nc3-c3ccccc3)cc2)CC1 [Akt inhibitor VIII] , and I need its recorded HSA synergy score.
Resp: 11.6

Req: Recorded HSA synergy score for Nc1ccn([C@@H]2O[C@H](CO)[C@@H](O)C2(F)F)c(=O)n1 [Gemcitabine] + CCOc1nc(NC(=O)Cc2cc(OC)ccc2OC)cc(N)c1C#N [JNK inhibitor VIII] , please?
Resp: 0.909

Req: Fill in: HSA synergy score of C[C@@H](Oc1cc(-c2cnn(C3CCNCC3)c2)cnc1N)c1c(Cl)ccc(F)c1Cl [Crizotinib] + CCOc1nc(NC(=O)Cc2cc(OC)ccc2OC)cc(N)c1C#N [JNK inhibitor VIII] is ___
Resp: 6.62

====

Test system: SF539
Experiment description: Bliss synergy score (Combenefit); higher = more synergy; extreme values may be limits of the assay
Stated conditions: exposure time: 72 h
Metric: Bliss synergy score
Simply state the number, no unit and no words.

Req: Which Bliss synergy score is listed for O=c1[nH]c2ccccc2n1C1CCN(Cc2ccc(-c3[nH]c4cc5ncnc5cc4nc3-c3ccccc3)cc2)CC1 [Akt inhibitor VIII] + N#CC(c1ccnc(NCCc2cccnc2)n1)c1nc2ccccc2s1 ?
Resp: 0.0617

Req: Requested read-out: Bliss synergy score. Entry: Nc1ccn([C@@H]2O[C@H](CO)[C@@H](O)C2(F)F)c(=O)n1 [Gemcitabine] + Cc1cc([C@@H](C)Nc2ccccc2C(=O)O)c2nc(N3CCOCC3)cc(=O)n2c1 [AZD6482]
Resp: 0.274

Req: What does the record list as Bliss synergy score for CCC(=O)N1CCN(c2ccc(-n3c(=O)ccc4cnc5ccc(-c6cnc7ccccc7c6)cc5c43)cc2C(F)(F)F)CC1 [Torin1] + N#CC(c1ccnc(NCCc2cccnc2)n1)c1nc2ccccc2s1 [AS601245] ?
Resp: 4.4

Req: Recorded Bliss synergy score of Nc1ccn([C@@H]2O[C@H](CO)[C@@H](O)C2(F)F)c(=O)n1 [Gemcitabine] + CCOc1nc(NC(=O)Cc2cc(OC)ccc2OC)cc(N)c1C#N [JNK inhibitor VIII] , please.
Resp: 0.139

Req: Would you kindly share the measured Bliss synergy score for CCC(=O)N1CCN(c2ccc(-n3c(=O)ccc4cnc5ccc(-c6cnc7ccccc7c6)cc5c43)cc2C(F)(F)F)CC1 [Torin1] + C#Cc1cccc(Nc2ncnc3cc(OCCOC)c(OCCOC)cc23)c1 [Erlotinib] ?
Resp: 0.68

Req: // returns reported Bliss synergy score for input CC(=O)O[C@@]12CO[C@@H]1C[C@H](O)[C@@]1(C)C(=O)[C@H](O)C3=C(C)[C@@H](OC(=O)[C@H](O)[C@@H](NC(=O)OC(C)(C)C)c4ccccc4)C[C@@](O)([C@@H](OC(=O)c4ccccc4)[C@H]21)C3(C)C [Docetaxel] + N#CC(c1ccnc(NCCc2cccnc2)n1)c1nc2ccccc2s1 [AS601245]
Resp: 0.511

Req: Give the measured Bliss synergy score of C#Cc1cccc(Nc2ncnc3cc(OCCOC)c(OCCOC)cc23)c1 [Erlotinib] + N#CC(c1ccnc(NCCc2cccnc2)n1)c1nc2ccccc2s1 [AS601245] .
Resp: 0.186

Req: # input molecule: Nc1ccn([C@@H]2O[C@H](CO)[C@@H](O)C2(F)F)c(=O)n1 [Gemcitabine] + CO[C@H]1C[C@@H]2CC[C@@H](C)[C@@](O)(O2)C(=O)C(=O)N2CCCC[C@H]2C(=O)O[C@H]([C@H](C)C[C@@H]2CC[C@@H](O)[C@H](OC)C2)CC(=O)[C@H](C)/C=C(\C)[C@@H](O)[C@@H](OC)C(=O)[C@H](C)C[C@H](C)/C=C/C=C/C=C/1C [Rapamycin] ; wanted: its Bliss synergy score
Resp: 4.47

Req: Fill blank: measured Bliss synergy score of the molecule CO[C@H]1C[C@@H]2CC[C@@H](C)[C@@](O)(O2)C(=O)C(=O)N2CCCC[C@H]2C(=O)O[C@H]([C@H](C)C[C@@H]2CC[C@@H](O)[C@H](OC)C2)CC(=O)[C@H](C)/C=C(\C)[C@@H](O)[C@@H](OC)C(=O)[C@H](C)C[C@H](C)/C=C/C=C/C=C/1C [Rapamycin] + C[C@@H](Oc1cc(-c2cnn(C3CCNCC3)c2)cnc1N)c1c(Cl)ccc(F)c1Cl [Crizotinib] is ____.
Resp: 0

Req: Please report the recorded Bliss synergy score for CC(=O)O[C@@]12CO[C@@H]1C[C@H](O)[C@@]1(C)C(=O)[C@H](O)C3=C(C)[C@@H](OC(=O)[C@H](O)[C@@H](NC(=O)OC(C)(C)C)c4ccccc4)C[C@@](O)([C@@H](OC(=O)c4ccccc4)[C@H]21)C3(C)C [Docetaxel] + O=c1[nH]c2ccccc2n1C1CCN(Cc2ccc(-c3[nH]c4cc5ncnc5cc4nc3-c3ccccc3)cc2)CC1 [Akt inhibitor VIII] .
Resp: 0.217

Req: Could you share which Bliss synergy score value was measured for CO[C@H]1C[C@@H]2CC[C@@H](C)[C@@](O)(O2)C(=O)C(=O)N2CCCC[C@H]2C(=O)O[C@H]([C@H](C)C[C@@H]2CC[C@@H](O)[C@H](OC)C2)CC(=O)[C@H](C)/C=C(\C)[C@@H](O)[C@@H](OC)C(=O)[C@H](C)C[C@H](C)/C=C/C=C/C=C/1C [Rapamycin] + C=CCc1cccc(/C=N/NC(=O)CN2CCN(Cc3ccccc3)CC2)c1O [PAC-1] ?
Resp: 0.0748

Req: For C[C@@H](Oc1cc(-c2cnn(C3CCNCC3)c2)cnc1N)c1c(Cl)ccc(F)c1Cl [Crizotinib] + Cc1cc([C@@H](C)Nc2ccccc2C(=O)O)c2nc(N3CCOCC3)cc(=O)n2c1 [AZD6482] , what is its reported Bliss synergy score?
Resp: 0.821

Req: Bliss synergy score lookup needed for CCCCCCCCCCCC1=C(O)C(=O)C=C(O)C1=O [Embelin] + O=c1[nH]c2ccccc2n1C1CCN(Cc2ccc(-c3[nH]c4cc5ncnc5cc4nc3-c3ccccc3)cc2)CC1 [Akt inhibitor VIII] , thanks.
Resp: 0.0542

Req: I am curious: what Bliss synergy score value has been reported for CO[C@H]1C[C@@H]2CC[C@@H](C)[C@@](O)(O2)C(=O)C(=O)N2CCCC[C@H]2C(=O)O[C@H]([C@H](C)C[C@@H]2CC[C@@H](O)[C@H](OC)C2)CC(=O)[C@H](C)/C=C(\C)[C@@H](O)[C@@H](OC)C(=O)[C@H](C)C[C@H](C)/C=C/C=C/C=C/1C [Rapamycin] + CCOc1nc(NC(=O)Cc2cc(OC)ccc2OC)cc(N)c1C#N [JNK inhibitor VIII] ?
Resp: 0

Req: Which Bliss synergy score is reported for this molecule? C[C@@H](Oc1cc(-c2cnn(C3CCNCC3)c2)cnc1N)c1c(Cl)ccc(F)c1Cl [Crizotinib] + CCOc1nc(NC(=O)Cc2cc(OC)ccc2OC)cc(N)c1C#N [JNK inhibitor VIII]
Resp: 5.02
